- assay name: Mean residence time in CD-1 mouse at 2 mg/kg, iv and 5 mg/kg, ip
- Type: ADME, organism-based
- stated conditions: in vivo

structure string	MRT [min]
CC[C@H](NC)C(=O)N[C@@H]1C(=O)N2[C@@H](CC[C@@H]1CO)CC[C@H]2C(=O)N[C@@H](c1ccccc1)c1cn(CCCCc2ccc(CCCCn3cc([C@@H](NC(=O)[C@@H]4CC[C@@H]5CC[C@H](CO)[C@H](NC(=O)[C@H](CC)NC)C(=O)N54)c4ccccc4)nn3)cc2)nn1.O=C(O)C(F)(F)F	20

###

- assay name: Cmax in CD-1 mouse at 5 mg/kg, ip at 15 mins
- Assay type: ADME, organism-based
- Design: dose 5 mg/kg, route intraperitoneal
- stated conditions: in vivo

structure string	Cmax, ng/mL
CC[C@H](NC)C(=O)N[C@@H]1C(=O)N2[C@@H](CC[C@@H]1CO)CC[C@H]2C(=O)N[C@@H](c1ccccc1)c1cn(CCCCc2ccc(CCCCn3cc([C@@H](NC(=O)[C@@H]4CC[C@@H]5CC[C@H](CO)[C@H](NC(=O)[C@H](CC)NC)C(=O)N54)c4ccccc4)nn3)cc2)nn1.O=C(O)C(F)(F)F	2610
